# System: GSC7 cells
# Test protocol: Nano-Glo Dual-Luciferase Reporter (Nanoglo DLR) assay of enhancer activity, fold change to mCMV
# Type: cell-based, human
# Measurement context: expression fold change of the individual enhancer compared to mCMV
Would you kindly list Fold change (Median) for each of these molecules?
Give bare numbers, in fold.

For orientation, consider the following solved cases.
Molecule	Reading
ID3548: enhancer fragment, SEQ ID NO: 15 (nucleic acid) DNA: TCCAAACACTCCCCTGCAACAGATGTACACACAGAGCCCATTGTTTTCTCTAGAAATGTAAACTGCACGTCACAGTTACTCCATACACACCACAAACAGACTCCCTTTGTTCTCAGGATATGTGTTGACACAAGAATATGTCATCCTCTCAGCTCCAGAC	40.0
ID2082: enhancer fragment, SEQ ID NO: 28 (nucleic acid) DNA: ACAGAAGCCGTTGCTGCAGTAACCACTGCCGCAAGAGCAACTTTGGCAGCAGGCAGGTGCCAGGCAGCAAGCTGAGAGAACACTGACAGATTCAAAGTGTCTTCAGATACAAGGCTTTGTTTGTGCACAGTGAACAAAGGGCATATTGGGAAGGCCTCC	26.4

Req: Answer with the recorded Fold change (Median) of ID3499: enhancer fragment, SEQ ID NO: 36 (nucleic acid, listed as DNA, chemistry not given here) DNA: AAGAATGAACTGGGCCCAGCTGGGCATTTGCATCAAAGTGCCTCACCAGAGTTCCCAGCTGCTCTGGCAGAGTGCCCAGGCTTGCCCCAGAGCCCAAACAGAATGCTCTTTGAGATGCCTCTGGTTTTCA only.
Resp: 20.7
